- assayed.system: rat CB1 (Rattus norvegicus (Rat), UniProt P20272)
- experiment.notes: CB1 cyclase functional assay (HitHunter cAMP)
- run.parameters: HEK cells, forskolin 37 μM; read-out: rCB1 cyclase (EC50)
pEC50: −log10 of the molar value.
Property: pEC50; scope: individual compounds
quantity.name: pEC50

[[record]]
compound = "CC(C)(C)NOc1ccc(C(F)(F)F)cc1C(=O)/N=c1\\sc(C(C)(C)C)nn1CCCC(F)(F)F [Example 164]"
quantity_name = "pEC50"
result = 5.99

[[record]]
compound = "CC(C)(C)NOc1ccc(C(F)(F)F)cc1C(=O)/N=c1\\sc(C(C)(C)C)nn1C[C@H]1CCCO1 [Example 153]"
quantity_name = "pEC50"
result = "< 4.57"

[[record]]
compound = "Cn1c(C(C)(C)C)c/c(=N\\C(=O)c2cc(C(F)(F)F)ccc2ONC(C)(C)C)n1C[C@H]1CCCO1 [Example 142]"
quantity_name = "pEC50"
result = "< 4.57"

[[record]]
compound = "CCCCn1nc(C(C)(C)C)s/c1=N\\C(=O)c1cc(C(F)(F)F)ccc1ON=C(C)C(F)(F)F [Example 172]"
quantity_name = "pEC50"
result = "< 4.57"


* * *

Property: Ki; scope: individual molecules
- assayed.system: UniProtKB P34972
- Sequence (P34972 whole entry): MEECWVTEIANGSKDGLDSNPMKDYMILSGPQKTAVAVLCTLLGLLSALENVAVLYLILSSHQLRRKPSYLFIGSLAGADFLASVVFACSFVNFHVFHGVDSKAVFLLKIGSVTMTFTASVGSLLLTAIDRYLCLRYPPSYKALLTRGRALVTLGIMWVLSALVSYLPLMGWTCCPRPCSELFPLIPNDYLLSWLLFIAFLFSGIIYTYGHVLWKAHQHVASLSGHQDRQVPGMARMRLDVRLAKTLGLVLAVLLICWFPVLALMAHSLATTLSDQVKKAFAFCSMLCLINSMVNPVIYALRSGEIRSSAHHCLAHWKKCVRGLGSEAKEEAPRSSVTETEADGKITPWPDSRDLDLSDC
- experiment.notes: human CB2 radioligand binding assay ([3H]CP 55,940 competition)
- run.parameters: HEK293 membranes, 0.5 nM [3H]CP 55,940; read-out: human CB2 (Ki)
quantity.name: Ki (nM)

[[record]]
molecule = "CCCCn1nc(C(C)(C)C)s/c1=N\\C(=O)c1cc(Cl)ccc1ONC(C)(C)C [Example 162]"
measured_number = 8.5

[[record]]
molecule = "CCCCn1nc(C(C)(C)C)s/c1=N\\C(=O)c1cc(C(F)(F)F)ccc1ON=C(N)C(C)C [Example 175]"
measured_number = 5.3

[[record]]
molecule = "CCCCn1/c(=N/C(=O)c2cc(C(F)(F)F)ccc2NNC(=O)c2ccncc2)cc(C(C)(C)C)n1C [Example 200]"
measured_number = 0.7

[[record]]
molecule = "CCCCn1nc(C(C)(C)C)s/c1=N\\C(=O)c1cc(C(F)(F)F)ccc1ON=C(N)c1cccnc1 [Example 204]"
measured_number = 87

[[record]]
molecule = "CCCCn1nc(C(C)(C)C)s/c1=N\\C(=O)c1cc(C(F)(F)F)ccc1ON=C(C)C(F)(F)F [Example 172]"
measured_number = 52

[[record]]
molecule = "CCCCn1nc(C(C)(C)C)s/c1=N\\C(=O)c1cc(C(F)(F)F)ccc1NNC(=O)c1cccnc1 [Example 197]"
measured_number = 1.1

[[record]]
molecule = "CCCCn1nc(C(C)(C)C)s/c1=N\\C(=O)c1cc(C(F)(F)F)ccc1ON=C(N)C(=O)OCC [Example 176]"
measured_number = 6.1


* * *

- assayed.system: rat CB2 (Rattus norvegicus (Rat))
- Sequence (Q9QZN9 whole entry): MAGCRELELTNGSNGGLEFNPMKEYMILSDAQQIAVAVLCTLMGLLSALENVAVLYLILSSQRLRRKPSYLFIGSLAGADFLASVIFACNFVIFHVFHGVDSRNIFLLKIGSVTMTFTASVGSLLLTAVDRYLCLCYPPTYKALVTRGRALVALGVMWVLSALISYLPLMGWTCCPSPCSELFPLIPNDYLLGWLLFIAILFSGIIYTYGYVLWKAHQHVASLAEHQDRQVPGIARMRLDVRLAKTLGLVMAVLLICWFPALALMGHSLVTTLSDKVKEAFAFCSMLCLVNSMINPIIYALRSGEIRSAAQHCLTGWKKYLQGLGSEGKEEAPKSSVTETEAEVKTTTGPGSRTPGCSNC
- experiment.notes: rat CB2 radioligand binding assay ([3H]CP 55,940 competition)
pKi: −log10 of the molar value.
Returns one of condition met or condition not met; condition met when pKi is >= 8.

[[record]]
smiles = "CCCCn1nc(C(C)(C)C)s/c1=N\\C(=O)c1cc(C(F)(F)F)ccc1ON(C)C"
assayed_system = "rat CB2 (Rattus norvegicus (Rat))"
group = "condition met"

[[record]]
smiles = "CCCCn1nc(C(C)(C)C)s/c1=N\\C(=O)c1cc(C(F)(F)F)ccc1N(/N=C/c1cccc(C)n1)C(=O)OC(C)(C)C"
assayed_system = "rat CB2 (Rattus norvegicus (Rat))"
group = "condition not met"

[[record]]
smiles = "CCCCn1nc(C(C)(C)C)s/c1=N\\C(=O)c1cc(C(F)(F)F)ccc1NNC(=O)OC(C)(C)C"
assayed_system = "rat CB2 (Rattus norvegicus (Rat))"
group = "condition met"

[[record]]
smiles = "CCCCn1nc(C(C)(C)C)s/c1=N\\C(=O)c1cc(C(F)(F)F)ccc1N/N=C\\c1cccc(C)n1"
assayed_system = "rat CB2 (Rattus norvegicus (Rat))"
group = "condition not met"

[[record]]
smiles = "CCCCn1nc(C(C)(C)C)s/c1=N\\C(=O)c1cc(C(F)(F)F)ccc1ONC(=O)OC(C)(C)C"
assayed_system = "rat CB2 (Rattus norvegicus (Rat))"
group = "condition met"

[[record]]
smiles = "CCCCn1nc(C(C)(C)C)s/c1=N\\C(=O)c1cc(C(F)(F)F)ccc1NNC(=O)OC"
assayed_system = "rat CB2 (Rattus norvegicus (Rat))"
group = "condition met"

[[record]]
smiles = "CCCCn1/c(=N/C(=O)c2cc(C(F)(F)F)ccc2ONC(C)(C)C)cc(C(C)(C)C)n1C"
assayed_system = "rat CB2 (Rattus norvegicus (Rat))"
group = "condition met"

